target_or_system: recombinant His-tag Wip1(2-420) protein (amino acids #2-420) (Homo sapiens (Human), UniProt O15297)
Sequence (O15297 2-420): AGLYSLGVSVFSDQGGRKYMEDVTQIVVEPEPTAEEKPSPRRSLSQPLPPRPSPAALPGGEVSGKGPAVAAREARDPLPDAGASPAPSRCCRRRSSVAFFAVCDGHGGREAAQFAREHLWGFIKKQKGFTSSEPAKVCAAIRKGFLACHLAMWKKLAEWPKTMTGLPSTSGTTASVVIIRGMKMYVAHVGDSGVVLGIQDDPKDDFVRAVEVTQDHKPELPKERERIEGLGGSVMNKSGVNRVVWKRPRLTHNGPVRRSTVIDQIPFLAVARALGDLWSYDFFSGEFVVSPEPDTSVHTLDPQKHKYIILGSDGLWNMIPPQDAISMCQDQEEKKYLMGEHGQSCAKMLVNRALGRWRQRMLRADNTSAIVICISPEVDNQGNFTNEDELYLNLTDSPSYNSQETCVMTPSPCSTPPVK
experiment_summary: Wip1(2-420) phosphatase enzyme FDP assay
applied_conditions: fluorescein diphosphate (FDP) substrate, RT 2 hours, fluorescence Ex485/Em535; read-out: WIP1 (Truncated 2-420) FDP Assay: IC50
One threshold, 10 nM, splits the recorded IC50 values: lower ones are Criterion met, equal or higher ones are Criterion not met.

INSERT INTO assay_data (compound, category) VALUES
  ('Cc1ncc(Cl)cc1N[C@@H](C)c1ccc(C(=O)N[C@@H](CCC(C)(C)C)C(=O)Nc2cnn(C)c2)s1 [Compound 160]', 'Criterion met'),
  ('C[C@H](Nc1cc(Cl)cnc1C(N)=O)c1ccc(C(=O)N[C@@H](CC2CCCC2)C(=O)Nc2cnn(C)c2)s1 [Compound 136]', 'Criterion met'),
  ('COC[C@H](Nc1cc(Cl)cnc1C)c1ccc(C(=O)N[C@@H](CC2CCCC2)C(=O)NC2CC2)s1 [Compound 159]', 'Criterion not met'),
  ('Cc1ncc(Cl)cc1N[C@@H](C)c1ccc(C(=O)N[C@@H](CC2CCCC2)C(=O)NC23CC(C(=O)O)(C2)C3)s1 [Compound 43]', 'Criterion not met'),
  ('COc1ncc(Cl)cc1N[C@@H](C)c1ccc(C(=O)N[C@@H](CC2CCCC2)C(=O)NC2CC2)s1 [Compound 38]', 'Criterion met'),
  ('Cc1ncc(Cl)cc1N[C@@H](C)c1ccc(C(=O)N[C@@H](CC2CCC3CC32)C(=O)NC23CC(C#N)(C2)C3)s1 (stereo partly shown) [Compound 111]', 'Criterion not met'),
  ('C[C@H](Nc1cc(Cl)cnc1CO)c1ccc(C(=O)N[C@@H](CC2CCCC2)C(=O)NC2CC2)s1 [Compound 105]', 'Criterion not met'),
  ('Cc1ncc(Cl)cc1NC(Cc1cnn(C)c1)c1ccc(C(=O)N[C@@H](CC2CCCC2)C(=O)NC2CC2)s1 (stereo partly shown) [Compound 188]', 'Criterion not met'),
  ('Cc1ncc(Cl)cc1N[C@H](C)c1ncc(C(=O)N[C@@H](CC2CCCC2)C(=O)NC23CC(C2)C3)s1 [Compound 126]', 'Criterion not met'),
  ('Cc1ncc(Cl)cc1N[C@@H](C)c1ccc(C(=O)N[C@@H](CC2CCCC2)C(=O)NC2(C(F)(F)F)CC2)s1 [Compound 42]', 'Criterion not met'),
  ('Cc1cc(NC(=O)[C@@H](NC(=O)c2ccc([C@H](C)Nc3cc(Cl)cnc3C)s2)C2CCCCC2)ccn1 [Compound 175]', 'Criterion not met'),
  ('Cc1ncc(Cl)cc1N[C@H](C)c1ccc(C(=O)N[C@@H](CC2CCCC2)C(=O)NC2CC2(F)F)s1 (stereo partly shown) [Compound 15]', 'Criterion not met'),
  ('CC(Nc1cc(Cl)ccc1C(C)(C)O)c1ccc(C(=O)N[C@@H](CC2CCCC2)C(=O)NC2CC2)s1 (stereo partly shown) [Compound 229]', 'Criterion not met'),
  ('COc1ncc(Cl)cc1N[C@@H](C)c1ccc(C(=O)N[C@@H](CC2CCCC2)C(=O)N[C@H]2CC2(F)F)s1 [Compound 49]', 'Criterion not met'),
  ('C[C@H](Nc1ccc(F)c(Cl)c1)c1ccc(C(=O)N[C@@H](CC2CCCC2)C(=O)NC2CC2)s1 [Compound 6]', 'Criterion met'),
  ('Cc1ncc(Cl)cc1N[C@@H](C)c1ncc(C(=O)N[C@@H](CC2CCCC2)C(=O)NC2CC2)s1 [Compound 311]', 'Criterion not met'),
  ('C[C@H](c1ccc(C(=O)N[C@@H](CC2CCCC2)C(=O)NC2CC2)s1)N1CCCc2ccc(Cl)cc21 [Compound 249]', 'Criterion not met'),
  ('Cc1ncc(Cl)cc1NC(C)c1ccc(C(=O)N[C@@H](CC2CCCC2)C(=O)NC23CC(C2)C3)s1 (stereo partly shown) [Compound 117]', 'Criterion not met'),
  ('Cc1ncc(Cl)cc1N[C@@H](C)c1ccc(C(=O)N[C@@H](CC2CCCC2)C(=O)N[C@@H]2CC[C@H](F)C2)s1 [Compound 258]', 'Criterion met'),
  ('Cc1ncc(Cl)cc1N[C@@H](C)c1ccc(C(=O)N[C@@H](C(=O)NC23CC(C2)C3)C(C)(C)C)s1 [Compound 247]', 'Criterion not met'),
  ('C[C@H](Nc1cc(Cl)cnc1C(=O)N(C)C)c1ccc(C(=O)N[C@@H](CC2CCCC2)C(=O)NC2CC2)s1 [Compound 205]', 'Criterion not met'),
  ('Cc1ncc(Cl)cc1N[C@@H](C)c1ccc(C(=O)N[C@@H](CC2CCCC2)C(=O)Nc2ccc(F)cc2)s1 [Compound 18]', 'Criterion met'),
  ('Cc1ncc(Cl)cc1NCc1ncc(C(=O)N[C@@H](CC2CCCCC2)C(=O)Nc2ccncc2)s1 [Compound 300]', 'Criterion met'),
  ('Cc1ncc(Cl)cc1N[C@@H](Cc1cnn(C)c1)c1ccc(C(=O)N[C@@H](CC2CCCC2)C(=O)NC2CC2)s1 [Compound 171]', 'Criterion met'),
  ('Cc1ncc(Cl)cc1N[C@H](Cc1ccccc1)c1ccc(C(=O)N[C@@H](CC2CCCC2)C(=O)NC23CC(C2)C3)s1 [Compound 215]', 'Criterion not met'),
  ('C[C@@H](Nc1cc(Cl)cnc1CO)c1ccc(C(=O)N[C@@H](CC2CCCC2)C(=O)NC2CC2)s1 [Compound 106]', 'Criterion not met'),
  ('C[C@H](Nc1cccc(Cl)c1)c1ccc(C(=O)N[C@@H](CC2CCCC2)C(=O)NC2CC2)s1 [Compound 2]', 'Criterion not met');

* * *

target_or_system: recombinant His-tag Wip1(2-420) protein (amino acids #2-420) (Homo sapiens (Human), UniProt O15297)
experiment_summary: Wip1(2-420) phosphatase enzyme FDP assay
applied_conditions: fluorescein diphosphate (FDP) substrate, RT 2 hours, fluorescence Ex485/Em535; read-out: WIP1 (Truncated 2-420) FDP Assay: IC50
property_label: IC50 (nM)

INSERT INTO assay_data (compound, property_label, relation_sign, recorded_measurement) VALUES
  ('Cc1ncc(Cl)cc1NC(Cc1ccccc1)c1ccc(C(=O)N[C@@H](CC2CCCC2)C(=O)NC23CC(F)(C2)C3)s1 (some centres unmarked)', 'IC50', '=', 23),
  ('Cc1ncc(Cl)cc1NC(Cc1ccncc1)c1ccc(C(=O)N[C@@H](CC2CCCC2)C(=O)NC2CC2)s1 (some centres unmarked)', 'IC50', '=', 22),
  ('Cc1ncc(Cl)cc1N[C@H](c1ccc(C(=O)N[C@@H](CC2CCCC2)C(=O)NC2CC2)s1)C(F)(F)F', 'IC50', '=', 61),
  ('Cc1ncc(Cl)cc1N[C@@H](C)c1ccc(C(=O)N[C@@H](CC23CC(C2)C3)C(=O)NC2CC2)s1', 'IC50', '=', 103),
  ('CCNC(=O)[C@H](CC1CCCC1)NC(=O)c1ccc([C@H](C)Nc2cc(Cl)cnc2C)s1', 'IC50', '=', 6),
  ('Cc1ncc(Cl)cc1N[C@@H](C)c1ccc(C(=O)N[C@@H](C(=O)NC2CC2)C(C)(C)C)s1', 'IC50', '>', 10000),
  ('Cc1ncc(Cl)cc1N[C@H](C)c1ncc(C(=O)N[C@@H](CC2CCCC2)C(=O)NC2CC2)s1', 'IC50', '=', 1550),
  ('Cc1ncc(Cl)cc1N[C@@H](C)c1ccc(C(=O)N[C@@H](CC2CCCC2)C(=O)NC23CCC(CC2)CC3)s1', 'IC50', '=', 8),
  ('C[C@H](Nc1cc(Cl)cnc1C(F)(F)F)c1ccc(C(=O)N[C@@H](CC2CCCC2)C(=O)NC2CC2)s1', 'IC50', '=', 10),
  ('Cc1ncc(Cl)cc1N[C@@H](C)c1ccc(C(=O)N[C@@H](CC2CCCC2)C(=O)NC2CCC2)s1', 'IC50', '=', 5),
  ('C[C@H](Nc1cc(Cl)cnc1-c1cccnc1)c1ccc(C(=O)N[C@@H](CC2CCCC2)C(=O)NC2CC2)s1', 'IC50', '=', 13),
  ('Cc1ncc(Cl)cc1N[C@@H](C)c1ccc(C(=O)N[C@@H](CC2CCCC2)C(=O)Nc2cc[nH]n2)s1', 'IC50', '=', 7),
  ('Cc1ncc(Cl)cc1N[C@@H](C)c1ccc(C(=O)N[C@@H](CC2CCCC2)C(=O)NC2CCC(C#N)C2)s1 (some centres unmarked)', 'IC50', '=', 11),
  ('Cc1ncc(Cl)cc1N[C@@H](Cc1ccccc1)c1ccc(C(=O)N[C@@H](CC2CCCC2)C(=O)NC23CC(C2)C3)s1', 'IC50', '=', 12);

* * *

target_or_system: recombinant His-tag Wip1 full length protein (amino acids #1-605) (Homo sapiens (Human))
Sequence (O15297 whole entry): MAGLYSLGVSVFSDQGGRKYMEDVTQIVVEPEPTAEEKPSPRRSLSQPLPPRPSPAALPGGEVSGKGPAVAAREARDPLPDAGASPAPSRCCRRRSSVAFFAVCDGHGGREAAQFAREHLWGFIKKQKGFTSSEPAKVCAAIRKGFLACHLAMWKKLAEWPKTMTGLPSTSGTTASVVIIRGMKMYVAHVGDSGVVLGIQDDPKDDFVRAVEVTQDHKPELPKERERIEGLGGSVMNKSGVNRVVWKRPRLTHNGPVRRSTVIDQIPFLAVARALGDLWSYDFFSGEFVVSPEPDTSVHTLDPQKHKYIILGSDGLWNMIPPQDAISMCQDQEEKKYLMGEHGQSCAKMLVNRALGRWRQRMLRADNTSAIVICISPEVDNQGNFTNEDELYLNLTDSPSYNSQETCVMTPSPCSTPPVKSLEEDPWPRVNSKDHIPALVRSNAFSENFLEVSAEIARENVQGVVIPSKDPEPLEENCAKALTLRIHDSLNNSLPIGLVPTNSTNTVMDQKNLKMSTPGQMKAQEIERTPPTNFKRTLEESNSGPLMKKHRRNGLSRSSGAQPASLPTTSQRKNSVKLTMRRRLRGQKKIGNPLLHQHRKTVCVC
experiment_summary: Wip1 full length phosphatase enzyme FDP assay
applied_conditions: fluorescein diphosphate (FDP) substrate, RT 2 hours, fluorescence Ex485/Em535
// reported IC50 for each item listed
property_label: IC50 (µM)

INSERT INTO results (compound, property_label, units_label, recorded_measurement) VALUES
  ('CCc1ncc(Cl)cc1N[C@@H](C)c1ccc(C(=O)N[C@@H](CC2CCCC2)C(=O)NC2CC2)s1 [Compound 78]', 'IC50', 'µM', 0.007),
  ('C[C@@H](Nc1cc(Cl)cnc1C1CC1)c1ccc(C(=O)N[C@@H](CC2CCCC2)C(=O)NC2CC2)s1 [Compound 71]', 'IC50', 'µM', 0.215),
  ('CN(Cc1ncc(C(=O)N[C@@H](CC2CCCCC2)C(=O)N[C@H]2CC[C@H](N(C)C)CC2)s1)c1cncc(Cl)c1 [Compound 303]', 'IC50', 'µM', 0.067),
  ('CC(c1ccc(C(=O)N[C@@H](CC2CCCC2)C(=O)NC2CC2)s1)N1CCc2cc(F)c(Cl)cc21 (some centres unmarked) [Compound 46]', 'IC50', 'µM', 0.023),
  ('COc1cc(NC(=O)[C@H](CC2CCCC2)NC(=O)c2ccc([C@H](C)Nc3cc(Cl)cnc3C)s2)ccc1F [Compound 69]', 'IC50', 'µM', 0.007);

The origin of these recorded values is patent US20240116910A1.
